- Assayed Target: Histone deacetylase 1 (Homo sapiens)
- Sequence (Q13547 whole entry): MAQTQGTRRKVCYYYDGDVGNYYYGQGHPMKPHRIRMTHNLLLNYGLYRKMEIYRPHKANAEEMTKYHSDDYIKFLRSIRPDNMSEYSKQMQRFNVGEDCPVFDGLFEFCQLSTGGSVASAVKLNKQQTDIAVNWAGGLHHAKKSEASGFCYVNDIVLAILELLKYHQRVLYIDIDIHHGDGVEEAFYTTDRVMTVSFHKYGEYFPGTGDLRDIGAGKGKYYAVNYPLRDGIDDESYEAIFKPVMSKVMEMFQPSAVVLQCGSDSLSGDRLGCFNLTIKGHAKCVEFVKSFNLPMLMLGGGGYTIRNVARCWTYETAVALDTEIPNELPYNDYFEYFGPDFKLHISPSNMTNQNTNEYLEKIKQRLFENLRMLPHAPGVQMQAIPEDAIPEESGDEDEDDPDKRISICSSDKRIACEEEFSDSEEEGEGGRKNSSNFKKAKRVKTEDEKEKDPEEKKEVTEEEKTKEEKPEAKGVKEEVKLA
- Protocol Notes: Inhibition of HDAC1 (unknown origin) using RHKK(Ac)AMC as substrate
Observation Type: IC50

// solved cases for IC50 follow
> print(dat)
                  compound.structure.string   result
1  CC1(C)NC(=O)[C@H](CCCCCC(=O)[C@@H]2CO2)NC(=O)[C@H]2CCCN2C(=O)[C@H](Cc2ccccc2)NC1=O  0.15 nM
2  C[C@@H](O)C(=O)CCCCC[C@@H]1NC(=O)[C@H]2CCCN2C(=O)[C@H](Cc2ccccc2)NC(=O)C(C)(C)NC1=O    30 nM
3  C[C@H](O)C(=O)CCCCC[C@@H]1NC(=O)[C@H]2CCCN2C(=O)[C@H](Cc2ccccc2)NC(=O)C(C)(C)NC1=O   330 nM

Answer with the recorded IC50 of CC1(C)NC(=O)[C@H](CCCCCC(=O)[C@H](O)CO)NC(=O)[C@H]2CCCN2C(=O)[C@H](Cc2ccccc2)NC1=O only.
145 nM

* * *

- Assayed Target: Protein deacetylase HDAC6 (Homo sapiens)
- Sequence (Q9UBN7 whole entry): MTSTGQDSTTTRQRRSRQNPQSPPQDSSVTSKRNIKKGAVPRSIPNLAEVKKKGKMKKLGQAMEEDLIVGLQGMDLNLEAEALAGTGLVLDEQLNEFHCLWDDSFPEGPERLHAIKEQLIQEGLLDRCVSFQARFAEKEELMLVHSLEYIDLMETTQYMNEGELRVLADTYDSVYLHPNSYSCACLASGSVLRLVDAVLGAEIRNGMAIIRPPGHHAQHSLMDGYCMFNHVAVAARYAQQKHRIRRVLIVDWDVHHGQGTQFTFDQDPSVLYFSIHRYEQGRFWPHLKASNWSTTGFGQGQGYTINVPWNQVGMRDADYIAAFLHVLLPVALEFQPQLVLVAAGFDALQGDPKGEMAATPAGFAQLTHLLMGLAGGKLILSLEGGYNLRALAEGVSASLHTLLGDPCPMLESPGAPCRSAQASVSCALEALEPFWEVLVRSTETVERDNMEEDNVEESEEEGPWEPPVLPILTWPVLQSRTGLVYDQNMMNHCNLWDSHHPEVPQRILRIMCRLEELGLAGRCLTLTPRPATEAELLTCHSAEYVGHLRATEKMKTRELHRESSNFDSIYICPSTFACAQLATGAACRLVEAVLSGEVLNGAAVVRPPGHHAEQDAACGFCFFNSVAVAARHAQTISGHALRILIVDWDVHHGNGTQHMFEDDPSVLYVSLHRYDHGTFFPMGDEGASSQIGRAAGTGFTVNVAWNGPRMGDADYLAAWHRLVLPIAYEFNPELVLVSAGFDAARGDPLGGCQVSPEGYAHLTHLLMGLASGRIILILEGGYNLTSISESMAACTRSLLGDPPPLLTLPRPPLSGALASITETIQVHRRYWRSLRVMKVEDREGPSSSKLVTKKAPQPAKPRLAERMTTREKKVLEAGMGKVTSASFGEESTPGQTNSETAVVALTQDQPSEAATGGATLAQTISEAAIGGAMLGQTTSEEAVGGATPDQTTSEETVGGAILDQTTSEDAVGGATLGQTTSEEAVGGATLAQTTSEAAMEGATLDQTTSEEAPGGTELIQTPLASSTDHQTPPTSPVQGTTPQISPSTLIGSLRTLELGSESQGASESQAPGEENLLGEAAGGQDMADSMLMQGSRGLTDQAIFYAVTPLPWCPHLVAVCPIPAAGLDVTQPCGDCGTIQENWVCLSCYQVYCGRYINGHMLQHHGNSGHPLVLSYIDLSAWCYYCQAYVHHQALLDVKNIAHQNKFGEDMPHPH
In this section we review reported IC50 values for a set of molecules.
Report only the number, with the unit µM understood.

> print(dat)
                  compound.structure.string  quantitative.readout
1  CC1(C)NC(=O)[C@H](CCCCCC(=O)[C@@H]2CO2)NC(=O)[C@H]2CCCN2C(=O)[C@H](Cc2ccccc2)NC1=O                   1.1

Here is the next item to consider.
Answer with the recorded IC50 of CC1(C)NC(=O)[C@H](CCCCCC(=O)[C@H](O)CO)NC(=O)[C@H]2CCCN2C(=O)[C@H](Cc2ccccc2)NC1=O only.
319
